Data credit: patent US8921370B2

Target: hmGluR5 (Homo sapiens (Human), UniProt P41594)
Sequence (P41594 21-1212): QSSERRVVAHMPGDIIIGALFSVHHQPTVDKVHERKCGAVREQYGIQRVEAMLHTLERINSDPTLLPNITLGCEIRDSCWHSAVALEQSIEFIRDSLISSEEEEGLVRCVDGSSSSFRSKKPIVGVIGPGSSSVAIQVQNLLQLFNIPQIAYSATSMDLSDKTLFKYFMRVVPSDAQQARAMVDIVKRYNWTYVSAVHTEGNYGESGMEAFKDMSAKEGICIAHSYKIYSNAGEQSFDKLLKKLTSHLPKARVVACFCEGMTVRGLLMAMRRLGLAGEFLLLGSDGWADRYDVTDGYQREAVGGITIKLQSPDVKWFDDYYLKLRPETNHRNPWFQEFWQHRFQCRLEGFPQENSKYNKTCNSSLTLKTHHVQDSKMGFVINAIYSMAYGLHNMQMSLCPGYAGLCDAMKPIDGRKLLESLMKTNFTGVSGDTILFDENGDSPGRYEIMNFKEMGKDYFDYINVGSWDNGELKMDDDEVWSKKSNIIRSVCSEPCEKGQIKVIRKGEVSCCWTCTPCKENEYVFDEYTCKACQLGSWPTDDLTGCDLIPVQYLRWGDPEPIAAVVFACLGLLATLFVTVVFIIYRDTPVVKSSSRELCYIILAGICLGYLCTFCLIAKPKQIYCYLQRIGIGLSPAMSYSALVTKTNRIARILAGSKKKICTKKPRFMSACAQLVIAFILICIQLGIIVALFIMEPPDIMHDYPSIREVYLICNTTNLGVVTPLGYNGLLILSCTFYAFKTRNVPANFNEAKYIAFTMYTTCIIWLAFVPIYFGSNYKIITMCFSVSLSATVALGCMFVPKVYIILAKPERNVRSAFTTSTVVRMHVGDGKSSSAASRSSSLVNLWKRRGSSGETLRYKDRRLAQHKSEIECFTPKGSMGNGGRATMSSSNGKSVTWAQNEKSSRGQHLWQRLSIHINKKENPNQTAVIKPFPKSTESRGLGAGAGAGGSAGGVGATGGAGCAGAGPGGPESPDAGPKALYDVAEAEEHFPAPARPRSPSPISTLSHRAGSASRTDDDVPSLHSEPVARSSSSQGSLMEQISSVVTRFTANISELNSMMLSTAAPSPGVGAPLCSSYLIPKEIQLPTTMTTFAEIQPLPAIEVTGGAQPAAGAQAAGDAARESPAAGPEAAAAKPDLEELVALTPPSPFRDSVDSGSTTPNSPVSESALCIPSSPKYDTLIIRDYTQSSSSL
Experiment: Calcium mobilization assay (FLIPR), negative allosteric activity, EC80 glutamate
Type: cell-based
Details: HEK293; HEK 293 cells expressing hmGluR5; FLIPR maximum inhibition of EC80 glutamate response; read-out: hmGlu5 FLIPR % inhibition
Emax values by entry
Report only the number, with the unit % understood.

Some entries whose results are on file:
Cc1cccc(C(=O)NC23CCCC(NC(=O)c4cccc(Cl)c4)(CC2)C3)n1 (stereo not shown) [Example 2] = 89
Cc1ncc(C(=O)NC23CCCC(NC(=O)c4cccc(Cl)c4)(CC2)C3)s1 (stereo not shown) [Example 15] = 88
Cc1cccc(NC(=O)C23CCCC(NC(=O)c4cccc(Cl)c4)(CC2)C3)n1 (stereo not shown) [Example 176] = 91
Cc1cccc(NC(=O)C23CCCC(NC(=O)c4nc(C)cs4)(CC2)C3)n1 (stereo not shown) [Example 171] = 94
Cc1cncc(C(=O)N[C@]23CCC[C@](NC(=O)c4cccc(F)c4)(CC2)C3)n1 [Example 160] = 89
Cc1cncc(C(=O)NC23CCCC(NC(=O)c4cccc(F)c4)(CC2)C3)n1 (stereo not shown) [Example 6] = 92
Cc1cncc(C(=O)N[C@@]23CCC[C@@](NC(=O)c4cccc(F)c4)(CC2)C3)n1 [Example 161] = 90
Cc1cccc(C(=O)NC23CCCC(NC(=O)c4ccncc4)(CC2)C3)c1 (stereo not shown) [Example 36] = 87
Cc1cccc(C(=O)NC23CCCC(C(=O)Nc4ccnc(C)n4)(CC2)C3)n1 (stereo not shown) [Example 178] = 90

For Cc1cccc(C(=O)N[C@@]23CCC[C@@](NC(=O)c4ccccn4)(CC2)C3)n1 [Example 126] , what is its reported Emax?
86

====

Target: hmGluR5 (Homo sapiens (Human))
Assay: Radioligand binding assay (MPEP binding site)
Conditions: radioligand binding to the MPEP site, 5 nM radioligand; Ki by Cheng-Prusoff
log10 Ki values by entry
The common logarithm of Ki in nM is what is listed.

Some entries whose results are on file:
Cc1cccc(NC(=O)C23CCCC(NC(=O)c4nc(C)cs4)(CC2)C3)n1 (stereo not shown) [Example 171] = 1.81
Cc1cccc(C(=O)N[C@@]23CCC[C@@](NC(=O)c4ccccn4)(CC2)C3)n1 [Example 126] = 1.59
Cc1cncc(C(=O)NC23CCCC(NC(=O)c4cccc(F)c4)(CC2)C3)n1 (stereo not shown) [Example 6] = 1.89
Cc1cncc(C(=O)N[C@]23CCC[C@](NC(=O)c4cccc(F)c4)(CC2)C3)n1 [Example 160] = 1.54
Cc1cccc(C(=O)NC23CCCC(NC(=O)c4cccc(Cl)c4)(CC2)C3)n1 (stereo not shown) [Example 2] = 1.43

For Cc1cccc(C(=O)NC23CCCC(C(=O)Nc4ccnc(C)n4)(CC2)C3)n1 (stereo not shown) [Example 178] , what is its reported log10 Ki?
2.57

// next record Cc1cncc(C(=O)N[C@@]23CCC[C@@](NC(=O)c4cccc(F)c4)(CC2)C3)n1 [Example 161]
3.08

====

Target: hmGluR5 (Homo sapiens (Human), UniProt P41594)
Assay: Calcium mobilization assay (FLIPR), negative allosteric activity, EC80 glutamate
Conditions: HEK 293 cells expressing hmGluR5; inhibition of EC80 glutamate response
reported_property: IC50 (nM)
Report only the number, with the unit nM understood.

Some entries whose results are on file:
Cc1cccc(C(=O)NC23CCCC(C(=O)Nc4ccnc(C)n4)(CC2)C3)n1 (stereo not shown) [Example 178] = 38
Cc1cccc(C(=O)NC23CCCC(NC(=O)c4cccc(Cl)c4)(CC2)C3)n1 (stereo not shown) [Example 2] = 3.7
Cc1cccc(C(=O)NC23CCCC(NC(=O)c4ccncc4)(CC2)C3)c1 (stereo not shown) [Example 36] = 35
Cc1cncc(C(=O)N[C@@]23CCC[C@@](NC(=O)c4cccc(F)c4)(CC2)C3)n1 [Example 161] = 134
Cc1cncc(C(=O)NC23CCCC(NC(=O)c4cccc(F)c4)(CC2)C3)n1 (stereo not shown) [Example 6] = 9
Cc1ncc(C(=O)NC23CCCC(NC(=O)c4cccc(Cl)c4)(CC2)C3)s1 (stereo not shown) [Example 15] = 26
Cc1cccc(NC(=O)C23CCCC(NC(=O)c4cccc(Cl)c4)(CC2)C3)n1 (stereo not shown) [Example 176] = 33
Cc1cncc(C(=O)N[C@]23CCC[C@](NC(=O)c4cccc(F)c4)(CC2)C3)n1 [Example 160] = 3.9
Cc1cccc(NC(=O)C23CCCC(NC(=O)c4nc(C)cs4)(CC2)C3)n1 (stereo not shown) [Example 171] = 4.7

For Cc1cccc(C(=O)N[C@@]23CCC[C@@](NC(=O)c4ccccn4)(CC2)C3)n1 [Example 126] , what is its reported IC50?
0.32
